target: Active Human ERK2 (hERK2) (Homo sapiens (Human)); assay: Active Human ERK2 (hERK2) Activity Assay (IMAP-FP); format: biochemical; conditions: phosphorylated active hERK2, 30 μM ATP; average; read-out: ERK 2 Human average IC50
pIC50: −log10 of the molar value.
quantity.name: pIC50

I. CCC(C)C(NC(=O)Nc1cc2[nH]nc(-c3ccnc(C)c3)c2cn1)c1ccc(Cl)cc1 (stereo not shown)
II. COCCNC(=O)Nc1cc2[nH]nc(-c3ccnc(C)c3)c2cn1
Name the one with the greater pIC50 value, either I or II as given. To answer, give the label that identifies your chosen option.
II
(II: 8.54, I: 7.96)

1. Cc1cc(-c2n[nH]c3c(Cl)c(NC(=O)NCc4ccccc4)ncc23)ccn1
2. C[C@@H](NC(=O)Nc1cc2[nH]nc(C3(C)CC3(F)F)c2cn1)c1ccc(F)cc1 (stereo partly shown)
Identify the entry with the smaller pIC50: 1 or 2 . To answer, give the label that identifies your chosen option.
2

----------
molecular target: Active Human ERK2 (hERK2) (Homo sapiens (Human)); assay: Active Human ERK2 (hERK2) Activity Assay (IMAP-FP); format: biochemical; details: phosphorylated active hERK2, 30 μM ATP; average; read-out: ERK 2 Human average IC50
quantity.name: IC50 (nM)

Examples with answers:
Cc1cc(-c2n[nH]c3cc(NC(=O)Nc4ccc(NCCc5ccccc5)nn4)ncc23)ccn1 :: 35
C[C@@H](NC(=O)Nc1cc2[nH]nc(CS(C)(=O)=O)c2cn1)c1ccccc1 :: 81.7
CC1CC(c2n[nH]c3cc(NC(=O)N[C@H](C)c4ccccc4)ncc23)=NO1 (some centres unmarked) :: 56
CNC(=O)[C@H]1CC1c1n[nH]c2cc(NC(=O)N[C@H](COC)c3ccccc3)ncc12 (some centres unmarked) :: 0.97
Cc1cc(-c2n[nH]c3cc(NC(=O)NCC4CN(C)CCO4)ncc23)ccn1 (centres unmarked) :: 5.95

A. Cc1cc(-c2n[nH]c3cc(NC(=O)NCc4cn[nH]c4)ncc23)ccn1
B. CCNC(=O)Nc1cc2[nH]nc(-c3ccc(F)cc3)c2cn1
C. Cc1cc(-c2n[nH]c3cc(NC(=O)NC(CCN(C)C)c4ccccn4)ncc23)ccn1 (centres unmarked)
Place the items in sequence of falling IC50. Return value: ordered labels per request.
B, A, C

----------
target: Active Human ERK2 (hERK2) (Homo sapiens (Human), UniProt P28482); experiment: Active Human ERK2 (hERK2) Activity Assay (IMAP-FP); assay type: biochemical; conditions: phosphorylated active hERK2, 30 μM ATP; average; read-out: ERK 2 Human average IC50
Sequence (P28482 whole entry): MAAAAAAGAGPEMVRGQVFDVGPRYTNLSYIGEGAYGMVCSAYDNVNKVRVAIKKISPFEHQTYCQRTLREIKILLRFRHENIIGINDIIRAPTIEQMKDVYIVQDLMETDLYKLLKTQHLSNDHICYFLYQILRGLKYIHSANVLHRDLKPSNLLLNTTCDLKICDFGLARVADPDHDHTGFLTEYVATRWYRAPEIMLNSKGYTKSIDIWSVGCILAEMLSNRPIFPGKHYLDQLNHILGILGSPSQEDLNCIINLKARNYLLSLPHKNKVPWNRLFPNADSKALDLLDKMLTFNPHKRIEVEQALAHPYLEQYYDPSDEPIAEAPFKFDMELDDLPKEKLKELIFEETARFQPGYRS
quantity.name: IC50 (nM)

Examples with answers:
CCc1c(NC(=O)N[C@H](C)c2ccccc2)ncc2c(-c3ccnc(C)c3)n[nH]c12 :: 6.68
COC[C@@H](NC(=O)Nc1cc2[nH]nc(C3CC3)c2cn1)c1ccccc1 :: 1.38
Cc1cc(-c2n[nH]c3cc(NC(=O)NCCC4CCOC4)ncc23)ccn1 (centres unmarked) :: 4.42
Cc1cc(-c2n[nH]c3cc(NC(=O)Nc4noc5ccccc45)ncc23)ccn1 :: 1.4
Cc1cc(-c2n[nH]c3cc(NC(=O)NC4CCN(S(C)(=O)=O)c5ccccc54)ncc23)ccn1 (centres unmarked) :: 1.35

1. C[C@@H](NC(=O)Nc1cc2[nH]nc(C(=O)NCC3(O)CC3)c2cn1)c1ccccc1
2. Cc1cc(-c2n[nH]c3cc(NC(=O)NCC(c4ccccc4)C4(O)CCOCC4)ncc23)ccn1 (centres unmarked)
3. Cc1cc(-c2n[nH]c3cc(NC(=O)NCc4c(F)cccc4F)ncc23)ccn1
4. C[C@@H](NC(=O)Nc1cc2[nH]nc(-c3ccn(C)n3)c2cn1)c1ccccc1
5. Cc1cc(-c2n[nH]c3cc(NC(=O)NC(CO)C(F)(F)F)ncc23)ccn1 (centres unmarked)
// ascending sort on recorded IC50 Return value: ordered labels per request.
3, 2, 4, 1, 5

a. Cc1cc(-c2n[nH]c3cc(NC(=O)NCCO)ncc23)ccn1
b. Cc1cc(-c2n[nH]c3cc(NC(=O)N[C@@H]4[C@@H](c5ccccc5)CN(C)[C@@H]4C)ncc23)ccn1
c. Cc1cc(-c2n[nH]c3cc(NC(=O)N[C@@H]4CN(CC(F)(F)F)C[C@H]4c4ccccc4)ncc23)ccn1
d. COC(=O)C1CC1c1n[nH]c2cc(NC(=O)N[C@H](C)c3ccccc3)ncc12 (some centres unmarked) [Example 641]
e. COCC(O)CNC(=O)c1n[nH]c2cc(NC(=O)N[C@H](C)c3ccccc3)ncc12 (some centres unmarked)
// ascending sort on recorded IC50 Return value: ordered labels per request.
b, c, a, e, d

----------
target: Active Human ERK2 (hERK2) (Homo sapiens (Human), UniProt P28482); test: Active Human ERK2 (hERK2) Activity Assay (IMAP-FP); assay type: biochemical; details: phosphorylated active hERK2, 30 μM ATP; average; read-out: ERK 2 Human average IC50
quantity.name: IC50 (nM)

Examples with answers:
Cc1cc(-c2n[nH]c3cc(NC(=O)N[C@@H]4CCCCc5ccccc54)ncc23)ccn1 :: 1.64
CO[C@H]1CN(C)C[C@@H]1NC(=O)Nc1cc2[nH]nc(-c3ccc(F)cc3)c2cn1 :: 1.13
Cc1cc(-c2n[nH]c3cc(NC(=O)NCc4ccc(-c5ncc[nH]5)cc4)ncc23)ccn1 :: 59
COc1cccc(F)c1CN1CCC[C@@H](NC(=O)Nc2cc3[nH]nc(-c4ccc(C#N)cc4)c3cn2)C1 :: 2.27
CN1C[C@@H](NC(=O)Nc2cc3[nH]nc(-c4ccc(F)cc4)c3cn2)[C@H](c2ccccc2)C1 :: 0.394
Cc1cc(-c2n[nH]c3cc(NC(=O)N[C@H]4CN(C)C[C@@H]4c4ccccc4)ncc23)ccn1 :: 18.8

1. Cc1cc(-c2n[nH]c3cc(NC(=O)N[C@H](C(=O)O)C(C)C)ncc23)ccn1
2. Cc1cc(-c2n[nH]c3cc(NC(=O)NCc4ccccc4OCC(F)F)ncc23)ccn1
Identify the entry with the smaller IC50: 1 or 2 . To answer, give the label that identifies your chosen option.
2
(2: 0.358 nM, 1: 2240 nM)

----------
molecular target: Active Human ERK2 (hERK2) (Homo sapiens (Human)); experiment: Active Human ERK2 (hERK2) Activity Assay (IMAP-FP); format: biochemical; settings: phosphorylated active hERK2, 30 μM ATP; average; read-out: ERK 2 Human average IC50
pIC50: −log10 of the molar value.
quantity.name: pIC50

COC[C@@H](NC(=O)Nc1ncc2c(-c3ccnc(C)c3)n[nH]c2c1F)c1ccccc1 :: 9.57

A. C[C@@H](NC(=O)Nc1cc2[nH]nc(C3CC3C(=O)O)c2cn1)c1ccccc1 (some centres unmarked)
B. C[C@@H](NC(=O)Nc1cc2[nH]nc(C(=O)NCCC3(O)CCCC3)c2cn1)c1ccccc1
C. CCCCNC(=O)Nc1cc2[nH]nc(C3CC3)c2cn1
D. Cc1cc(-c2n[nH]c3cc(NC(=O)NC4CCc5cccnc5C4)ncc23)ccn1 (centres unmarked)
E. Cc1cc(-c2n[nH]c3cc(NC(=O)N[C@H](C)c4ccc(F)c(F)c4)ncc23)ccn1
// ascending sort on recorded pIC50 Return value: ordered labels per request.
C, B, A, D, E

----------
biological target: Active Human ERK2 (hERK2) (Homo sapiens (Human)); experiment: Active Human ERK2 (hERK2) Activity Assay (IMAP-FP); assay type: biochemical; details: phosphorylated active hERK2, 30 μM ATP; average; read-out: ERK 2 Human average IC50
pIC50: −log10 of the molar value.
quantity.name: pIC50

A. C[C@@H](NC(=O)Nc1cc2[nH]nc(-c3cnoc3)c2cn1)c1ccccc1 [Example 640]
B. Cc1cc(-c2n[nH]c3cc(NC(=O)NCc4cccc(Cl)c4)ncc23)ccn1 [Example 27]
C. Cc1cc(-c2n[nH]c3cc(NC(=O)N[C@@H](CO)c4cccc5cc[nH]c45)ncc23)ccn1 [Example 363]
D. C[C@@H](NC(=O)Nc1cc2[nH]nc(CO)c2cn1)c1ccccc1 [Example 615]
Returns the items ordered by pIC50, from maximum to minimum. Return value: ordered labels per request.
B, A, D, C

A. COC(C)CNC(=O)c1n[nH]c2cc(NC(=O)N[C@H](C)c3ccccc3)ncc12 (some centres unmarked) [Example 131]
B. CC[C@H](NC(=O)Nc1cc2[nH]nc(-c3ccnc(C)c3)c2cn1)c1ccc(Cl)cc1 [Example 413]
Name the one with the greater pIC50 value, either A or B as given. To answer, give the label that identifies your chosen option.
A

I. Cc1cc(-c2n[nH]c3cc(NC(=O)NC4CCc5cc(Cl)ccc54)ncc23)ccn1 (centres unmarked) [Example 283]
II. Cc1cc(-c2n[nH]c3cc(NC(=O)N[C@H](C)c4ccc(C#N)cc4)ncc23)ccn1 [Example 234]
III. CCCNC(=O)Nc1cc2[nH]nc(-c3ccnc(C)c3)c2cn1 [Example 241]
Place the items in sequence of falling pIC50. Return value: ordered labels per request.
II, III, I
(II: 9.06, III: 8.56, I: 7.07)

A. C[C@@H](NC(=O)Nc1cc2[nH]nc(C3CC3)c2cn1)c1ccc(F)c(Cl)c1 [Example 82]
B. C[C@@H](NC(=O)Nc1cc2[nH]nc(-c3ccc(S(C)(=O)=O)cc3)c2cn1)c1ccccc1 [Example 89]
C. Cc1cc(-c2n[nH]c3cc(NC(=O)N[C@@H]4CCN(CC(F)(F)F)C4)ncc23)ccn1 [Example 326]
D. Cc1cc(-c2n[nH]c3cc(NC(=O)N4CC(c5cccc(F)c5)C4)ncc23)ccn1 [Example 278]
E. Cc1cc(-c2n[nH]c3cc(NC(=O)NC(C)c4ccc(S(C)(=O)=O)cc4)ncc23)ccn1 (centres unmarked) [Example 376]
Place the items in sequence of falling pIC50. Return value: ordered labels per request.
E, B, C, A, D

A. Cc1cc(-c2n[nH]c3cc(NC(=O)N[C@@H]4CN[C@H](c5ccccc5)C4)ncc23)ccn1 [Example 405]
B. Cc1cc(-c2n[nH]c3cc(NC(=O)NC(C)c4cccnc4)ncc23)ccn1 (centres unmarked) [Example 49]
Identify the entry with the smaller pIC50: A or B . To answer, give the label that identifies your chosen option.
A
